The measured values listed here are drawn from patent US11192865B2.

Parameter pIC50: see the listing below.
System: 8XTBD luciferase reporter
Experiment: YAP Reporter Assay
Type: cell-based
Conditions: Homo sapiens, HEK-293T; HEK293T cells stably transfected with 8XTBD luciferase reporter and pRLTK; 24-hr incubation; starting from 3 μM, 1:3 dilution, 10 points; read-out: Firefly Luciferase IC50
pIC50: −log10 of the molar value.

Task: Which pIC50 is reported for this compound? CNS(=O)(=O)c1ccc(N[C@H]2CC[C@@H](C(F)(F)F)CC2)c(-c2cn(C)cn2)c1 [Compound 150]
Output: ≥ 7.00

Task: Which pIC50 is reported for this compound? CNS(=O)(=O)c1ccc(NC2CCCCC2)c(-c2nnn(C(C)C)n2)c1 [Compound 26]
Output: ≥ 7.00

Task: Which pIC50 is reported for this compound? CNS(=O)(=O)c1ccc(NC2CCCCC2)c(-c2cncnc2)c1 [Compound 55]
Output: < 5.52

Task: Which pIC50 is reported for this compound? CNS(=O)(=O)c1ccc(NC2CCCCC2)c(-c2cc(N)ccn2)c1 [Compound 84]
Output: 6.00 to 7.00
